The entries below are paired with their reported MFC.
# Test system: C. albicans ATCC 90028
# ASSAY OVERVIEW: MFC by the agar method
# CONDITIONS USED: Candida albicans, ATCC90028
Note: unit µg/mL is implicit; provide only the numeric part.

As a guide, the following entries are already answered.
O=C1NC(=O)[C@]2(N1)[C@@H](c1ccccc1O)[C@H](c1ccccc1)N[C@@]21C(=O)Nc2ccc(Cl)cc21 (stereo in doubt) | 93.8
C[C@@H]1[C@H](O)[C@@H](C)/C=C/C=C/C=C/C=C/C=C/C=C/C=C/[C@H](O[C@@H]2O[C@H](C)[C@@H](O)[C@H](N)[C@@H]2O)C[C@@H]2O[C@](O)(C[C@@H](O)C[C@@H](O)[C@H](O)CC[C@@H](O)C[C@@H](O)CC(=O)O[C@H]1C)C[C@H](O)[C@H]2C(=O)O [Amphotericin B, reference compound] | 500
O=C1NC(=O)[C@]2(N1)[C@@H](c1ccc(Cl)cc1)[C@H](c1ccccc1)N[C@@]21C(=O)Nc2ccccc21 (racemic) | 23.4

Q: I am curious: what MFC value has been reported for O=C1NC(=O)[C@]2(N1)[C@@H](c1ccc(Br)cc1)[C@H](c1ccccc1)N[C@@]21C(=O)N(Cc2ccccc2)c2ccccc21 (racemic) ?
Ans: 93.8

Q: I am curious: what MFC value has been reported for O=C1NC(=O)[C@]2(N1)[C@@H](c1ccc(Cl)cc1)[C@H](c1ccccc1)N[C@@]21C(=O)N(Cc2ccccc2)c2ccccc21 (racemic) ?
Ans: 93.8

====

# Test system: M. luteus NCIMB 8166
# ASSAY OVERVIEW: MBC by the agar method
# CONDITIONS USED: Micrococcus luteus, NCIMB8166
The entries below are paired with their reported MBC.
Note: unit µg/mL is implicit; provide only the numeric part.

As a guide, the following entries are already answered.
Cc1ccc([C@H]2[C@H](c3ccccc3)N[C@@]3(C(=O)Nc4ccc(Br)cc43)[C@@]23NC(=O)NC3=O)cc1 (racemic) | 750
COc1ccc([C@H]2[C@H](c3ccccc3)N[C@@]3(C(=O)Nc4ccccc43)[C@@]23NC(=O)NC3=O)cc1 (racemic) | 750

Turning now to a further molecule:
Q: I am curious: what MBC value has been reported for CN(C)[C@@H]1C(O)=C(C(N)=O)C(=O)[C@@]2(O)C(O)=C3C(=O)c4c(O)cccc4[C@@](C)(O)[C@H]3C[C@@H]12 [Tetracycline, reference compound] ?
Ans: 512

====

# Tested on: C. albicans ATCC 90028
# ASSAY OVERVIEW: MFC by the agar method
# CONDITIONS USED: Candida albicans, ATCC90028
RECORDED ENDPOINT: MFC (µg/mL)
Note: unit µg/mL is implicit; provide only the numeric part.

O=C1NC(=O)[C@]2(N1)[C@@H](c1ccc(F)cc1)[C@H](c1ccccc1)N[C@@]21C(=O)Nc2ccc(Cl)cc21 (racemic) | 93.8

Turning now to a further compound:
Q: I am curious: what MFC value has been reported for O=C1NC(=O)[C@]2(N1)[C@@H](c1ccc(F)cc1)[C@H](c1ccccc1)N[C@@]21C(=O)Nc2ccccc21 (racemic) ?
Ans: 93.8

====

# Tested on: C. albicans ATCC 90028
# ASSAY OVERVIEW: MFC by the agar method
# CONDITIONS USED: Candida albicans, ATCC90028
The entries below are paired with their reported MFC.
Note: unit µg/mL is implicit; provide only the numeric part.

O=C1NC(=O)[C@]2(N1)[C@@H](c1ccccc1O)[C@H](c1ccccc1)N[C@@]21C(=O)Nc2ccccc21 (racemic) | 188
COc1ccc([C@H]2[C@H](c3ccccc3)N[C@@]3(C(=O)Nc4ccc(Cl)cc43)[C@@]23NC(=O)NC3=O)cc1 (racemic) | 46.9
O=C1NC(=O)[C@]2(N1)[C@@H](c1ccc(F)cc1)[C@H](c1ccccc1)N[C@@]21C(=O)Nc2ccc(Br)cc21 (racemic) | 188

Q: I am curious: what MFC value has been reported for Cc1ccc([C@H]2[C@H](c3ccccc3)N[C@@]3(C(=O)Nc4ccc(Br)cc43)[C@@]23NC(=O)NC3=O)cc1 (racemic) ?
Ans: 188

The origin of these recorded values is paper PMC10650415.
